Target: T1, Human CD228 protein (human, UniProt P08582 20-708, limits assumed)
T1 construct: Recombinant protein made in CHO cells, purified over a Ni column; The printed entry begins with the leader (MRGPSG...) and ends with ten His; also called hCD228; CD228-His protein
T1 sequence: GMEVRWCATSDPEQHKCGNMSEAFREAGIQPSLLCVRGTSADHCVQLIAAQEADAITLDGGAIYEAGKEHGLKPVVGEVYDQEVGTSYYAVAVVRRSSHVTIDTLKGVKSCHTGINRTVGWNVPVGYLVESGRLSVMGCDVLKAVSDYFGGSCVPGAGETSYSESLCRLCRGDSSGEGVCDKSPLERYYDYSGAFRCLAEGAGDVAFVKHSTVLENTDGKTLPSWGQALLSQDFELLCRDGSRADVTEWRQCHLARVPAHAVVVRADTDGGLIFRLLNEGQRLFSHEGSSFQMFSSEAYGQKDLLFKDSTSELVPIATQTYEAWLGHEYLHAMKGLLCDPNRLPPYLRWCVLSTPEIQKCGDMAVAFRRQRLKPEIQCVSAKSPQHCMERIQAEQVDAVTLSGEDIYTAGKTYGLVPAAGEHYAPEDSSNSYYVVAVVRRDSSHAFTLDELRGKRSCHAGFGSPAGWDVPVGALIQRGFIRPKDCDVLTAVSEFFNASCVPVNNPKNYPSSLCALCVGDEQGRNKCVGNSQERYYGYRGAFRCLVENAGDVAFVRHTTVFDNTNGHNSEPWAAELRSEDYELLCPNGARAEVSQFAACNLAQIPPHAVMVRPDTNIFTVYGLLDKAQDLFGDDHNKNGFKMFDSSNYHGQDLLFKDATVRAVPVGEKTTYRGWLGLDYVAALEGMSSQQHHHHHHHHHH
Experiment: Octet competition on His-chip CD228; competitor: CA67
Parameter: Octet response value
Reply: number alone, nothing else.

### Prompt I'd like to know its Octet response value. The binder in question is reference antibody hL49 (antibody, human IgG1, kappa, V domains shown, also called H149; hL49 analogy) VH: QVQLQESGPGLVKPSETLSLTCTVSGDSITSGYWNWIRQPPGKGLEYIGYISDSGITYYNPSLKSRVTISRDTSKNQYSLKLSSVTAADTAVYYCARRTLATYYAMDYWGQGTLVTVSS VL: DFVMTQSPLSLPVTLGQPASISCRASQSLVHSDGNTYLHWYQQRPGQSPRLLIYRVSNRFSGVPDRFSGSGSGTDFTLKISRVEAEDVGVYYCSQSTHVPPTFGQGTKLEIKR
### Response 0.456
